- TGT: T1, Bdf1 bromodomain 1 (GST-tagged, WT) (Saccharomyces cerevisiae (strain ATCC …, UniProt P35817))
- T1 chain: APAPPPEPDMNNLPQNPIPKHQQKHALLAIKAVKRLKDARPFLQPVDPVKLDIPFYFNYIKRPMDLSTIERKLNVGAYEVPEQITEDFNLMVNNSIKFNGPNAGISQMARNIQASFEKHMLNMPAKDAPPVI
- ASSAY_METHOD_TEXT: histone peptide array probed with recombinant GST-bromodomain, signal normalised to myc peptide control
MEASURED_ATTRIBUTE: binding score

Below: 2 binders and their reported binding score.
ARTKQTARKSTGGKAPRKQ (A Rme2s T Kme2 Q T A Rme2s Kac S T G G K A P R K Q)    0.0179
ARTKQTARKSTGGKAPRKQ (A R T K Q T A R K S pT G G Kac A P R K Q)    0.00574

a. ARTKQTARKSTGGKAPRKQ (A Rme2a T Kac Q T A Rme2s Kac S T G G K A P R K Q)
b. ARTKQTARKSTGGKAPRKQ (A Rme2a T Kme1 Q T A Rme2a Kme3 S T G G K A P R K Q)
c. ARTKQTARKSTGGKAPRKQ (A R T K Q T A R K S pT G G K A P R K Q)
**Q:** Sort entries by binding score from minimum to maximum value. Return value: ordered labels per request.
**A:** c, b, a
(c: 0, b: 0.00197, a: 0.0518)

a. PRKQLATKAARKSAPATGG (histone peptides carry modifications given inline in the sequence and in columns 4-7 (Kac, Kme1/2/3, Rme2a/s, Cit, pS/pT); N-terminus free or acetylated) [H3 16-35]
b. ARTKQTARKSTGGKAPRKQ (A R T K Q T A Rme2s K S T G G K A P R K Q)
**Q:** Name the one with the greater binding score value, either a or b as given. To answer, give the label that identifies your chosen option.
**A:** b
